Each recorded value in this set is attributed to the RNAGym collection of RNA variant scans (doi:10.1073/pnas.2313332121).

Reported polymerase ribozyme fitness (log ratio) values for the following variants.
B1: TPR t1 (parent)
chain: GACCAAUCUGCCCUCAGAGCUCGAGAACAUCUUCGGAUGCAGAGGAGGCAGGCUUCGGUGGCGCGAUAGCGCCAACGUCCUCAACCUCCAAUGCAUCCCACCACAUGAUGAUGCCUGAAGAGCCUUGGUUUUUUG

Variants of: B1
Assay: polymerase ribozyme fitness, log enrichment relative to wild type (log ratio); higher = more active; in vitro selection for triplet polymerase activity
Please reply with the number alone, leaving off any unit.

These solved cases illustrate the format of a correct answer.
GACCAAUCUGGCCUCAGAGCUCGAGAACAUCUUCGGAUGCACAGGAGGCAGGAUUCGGUGGCGCGAUAGCGCCAACGUCCUCAACCUCCAAUGCAUCCCACCACAUGAUGAUGCCUGAAGAGCCUUGGUUUUUUG [C11G G42C C53A] | -1.03
GACCAAUCUGCCCUCAGAGCUCGAGAACAUCUUCGGAUGCAGAGGAGGCAGGCUUCGGUGGCGCGAUAGCGCCAACGUCCUCAACCUCCAAAGCAUCCCACCACAUGAUGAUGCCUGAAGAGCCUUGGAUUUUUG [U92A U129A] | -4.29
GACCAAUCUGCCCUCAGAGCUCGAGAACAUCUUCGGAUGCAGAGGAGGUAGGCUUCGGUGGCGCGAUAGCGCCAACGUCCUCAACCUCCAAUGCAUCCCACCACAUGAUGAUGCCUGAAUAGCCUUGGUUUUUUG [C49U G120U] | -0.184

For the variant shown here, GACCAAUCUGCCCUCAGAGCUCGAGGACAUCUUCGGAUGCAGAGGAGGCAUGCUUCGGUGGCGCGAUAGCGCCAACGUCCUCAACCUCCAAUGCAUCCCACCACAUGAUGAUGCCUGAAGAGCCUUGGUUUUUUG [A26G G51U] , give the reported polymerase ribozyme fitness (log ratio).
-5.11

For the variant shown here, GACCCAUCUGCGCACAGAGCUCGAGAACAUCUUCGGAUGCAGAGGAGGCAGGCUUCGGUGGCUCGAUAGCGCCAACGUCCUCAACCUCCAAUGCAUCCCACCACAUGAUGAUGCCUGAAGAGCCUUGGUUUUUUG [A5C C12G U14A G63U] , give the reported polymerase ribozyme fitness (log ratio).
-2.95

For the variant shown here, GACCAAUUUGCCCUCAGAGCUCGAGAACAUCUUCGGAUUCAGAGGAGGCAGGCUUCGGUGGCGCGGUAGCGCCAACGUCCUCAACCUCCAAUGCAUCCCACCACAUGAUGAUCCCUGAAGAGCCUUGGUUUUUUG [C8U G39U A66G G113C] , give the reported polymerase ribozyme fitness (log ratio).
-4.22

For the variant shown here, GACCAAUCUGCCCUCAGAGCUUGAGAACAUCUUCGGAUGCAGAGGAGGCAGGCUUCGGUGGCGCGAUAGCGCCAACGUCCUAAACCGCCAAUGCAUCCCACCACAUGAUGAUGCCUGAAGAGCCUUGGUUUUUUG [C22U C82A U87G] , give the reported polymerase ribozyme fitness (log ratio).
-5.14

For the variant shown here, GACCAAUCCGCCCUCAGAGCUCGAGAACAUCUUCGGAUUCAGAGGAGACAGGGUUCGGUGGCGCGAUAGCGCCAACGUCCUCAACCUCCAGUGCAUCCCACCACAUGAUGAUGCCUGAAGAGCCUUGGUUUUUUG [U9C G39U G48A C53G A91G] , give the reported polymerase ribozyme fitness (log ratio).
-2.06

For the variant shown here, GACCAAUCUGCCCUCAGAGCUCGAGAACAUCUUCGGAUGCAGAGGAGGCAGCCUUCGGUGGCGCGAUAGCCCCAACGUCCUCAACCUCCAAUGCAUCCCACUAAAUGAUGAUGCCUGAAGAGCCUUGGUUUUUUG [G52C G71C C102U C104A] , give the reported polymerase ribozyme fitness (log ratio).
-3.27

For the variant shown here, GACCAAUCUGCCCUCAGAGAUCGAGAACAUCUUCGGAUGCAGAUGAGGCAGGCUUCGGUGGCGCGAUAACGCCAACGUCCUCAACAUCCAAUGCAUCCCACCACAUGAUGAUGCCUGAAGAGGCUUGGUUUUUUG [C20A G44U G69A C86A C123G] , give the reported polymerase ribozyme fitness (log ratio).
-6.49
